The reader will find reported RP-LC retention time values listed item by item below.
- protocol description: gradient 5% acetonitrile 3 min, to 50% in 2 min, to 85% in 15 min, held 3 min, 100 µL/min
- condition label: column: Zorbax Extend-C18 2.1 x 50 mm; eluents: water / acetonitrile, 0.1% formic acid

# compound, RP-LC retention time, s
rows = [
    ("CCc1cccc(NC(=O)c2cn(CC)nc2S(=O)(=O)N2CCSCC2)c1", 1080),
    ("Cc1cccc(C(=O)Nc2nc(-c3ccc4c(c3)NC(=O)C(C)O4)c(C)s2)c1 (stereo not drawn)", 979),
    ("CC(C)n1cc(C2=CCN(S(=O)(=O)c3ccccc3)CC2)c2cccnc21", 702),
    ("COc1ccc(NC(=O)Cn2nc(N3CCCC(C)C3)c3ccccc3c2=O)cc1OC (stereo not drawn)", 997),
    ("COc1cccc(CN2CCC3(CC2)CN(c2ncccn2)CC3CO)n1 (stereo not drawn)", 562),
    ("O=C(C1COc2ccccc2O1)N(CCc1cccs1)Cc1ccco1 (stereo not drawn)", 1020),
    ("COC(=O)CNC(=O)Nc1ncc(-c2ccccc2)n1C", 596),
    ("Cc1noc(C)c1S(=O)(=O)N1CCC(N2CC3(CCCCC3)C2c2ccccc2)CC1 (stereo not drawn)", 790),
    ("O=C(Cn1cc(S(=O)(=O)Cc2ccccc2F)c2ccccc21)NCC1CCCO1 (stereo not drawn)", 806),
    ("CCOC(=O)c1cc(S(=O)(=O)N2CCCC2C(=O)Nc2ccc(C)c(F)c2)cn1C (stereo not drawn)", 988),
    ("Cc1nc(OCC(=O)Nc2cccc(C)c2C)c2ccccc2n1", 737),
    ("Cc1cc(N2CCOCC2)nc(N2CCN(S(=O)(=O)c3ccc4c(c3)Cc3ccccc3-4)CC2)n1", 813),
    ("CN(CC1CCOC1)S(=O)(=O)Cc1ccccc1F (stereo not drawn)", 755),
    ("O=C(NC1CCCCC1)C1CCN(Cc2cc3ccccc3n2Cc2cccc(Cl)c2)CC1", 847),
    ("COc1ccc(C(=O)N2CCCn3nc(-c4cccs4)cc3C2)cn1", 766),
    ("CCCNC(=O)C1CCN(c2ccc(SCC(=O)Nc3cccc(SC)c3)nn2)CC1", 677),
    ("CC(C)(C)NC(=O)CCc1ccc2nc(-c3ccccc3)[nH]c2c1", 632),
    ("O=S(=O)(NC1(c2nc(-c3ccsc3)no2)CCCCC1)c1ccc2c(c1)OCCO2", 954),
    ("CCn1nc(-c2ccc(OC)c(S(=O)(=O)N3CCC(C(N)=O)CC3)c2)c2c(c1=O)CCCC2", 663),
    ("Cc1cc(OCC(=O)N[C@@H](CC(C)C)C(=O)O)c2c3c(c(=O)oc2c1)CCCC3", 894),
    ("CC1=C(c2ccc(Cl)cc2)S(=O)(=O)N=C1N1CCC(NC(=O)C2CCOC2)CC1 (stereo not drawn)", 733),
    ("COc1ccccc1-c1noc(Cn2ncn3nc(-c4ccc(F)cc4)cc3c2=O)n1", 996),
    ("O=C(c1cccc(C(F)(F)F)c1)N1CCN(c2cc(-n3ccnc3)ncn2)CC1", 606),
    ("CCOC(=O)c1ccc(NC(=O)NCc2ccccc2)cc1", 817),
    ("c1ccc2c(c1)CCC[C@H]2Nc1nc2ccccc2[nH]1", 705),
    ("Cc1ccc(-c2cc(C(=O)N3CCN(Cc4ccc5c(c4)OCO5)CC3)c(C)[nH]2)cc1C", 718),
    ("O=c1n(CCOc2ccc(F)cc2)nc2ccc(S(=O)(=O)N3CCOCC3)cn12", 811),
    ("CCn1c(CCC(=O)NCc2ccc(F)c(Cl)c2)nc2c(C)cccc2c1=O", 916),
    ("CN1C2CCC1CC(OC(=O)c1c[nH]c3ccccc13)C2 (stereo not drawn)", 644),
    ("Cc1ccc(-c2ccc(N3CCCC(C(=O)N4CCC5(CC4)OCCO5)C3)nn2)cc1C (stereo not drawn)", 684),
    ("Cc1cc2c(c(=O)n(-c3ccccc3)c(=O)n2CC(=O)Nc2cccc(C(C)C)c2)n1C", 975),
    ("O=C(CCc1c(-c2ccc(F)cc2)nc2ccccn12)NCc1cccc(F)c1", 645),
    ("Cc1cc2c(cc1S(=O)(=O)N1CCCC1C(=O)Nc1cccc(Cl)c1)OCC(=O)N2 (stereo not drawn)", 817),
    ("O=C(NCc1ccc(F)cc1)Nc1c(-c2ccc(F)cc2)nc2ccccn12", 663),
    ("COc1ccc(C(=O)Nc2nc(-c3ccc4c(c3)NC(=O)CO4)cs2)cc1OC", 801),
    ("CC(C)CC(NC(=O)CC1CCCCC1)C(=O)Nc1nc2ccccc2[nH]1 (stereo not drawn)", 803),
    ("O=C(CC1CCOC2(CCN(Cc3ccco3)CC2)C1)NC1CC1 (stereo not drawn)", 573),
    ("COc1ccc(S(=O)(=O)N2CCC(n3cnc4ccc(C)cc4c3=O)CC2)cc1OC", 827),
]
